# Test system: Zika virus
# assay-remarks: Antiviral activity against ZIKV IMT17
# Assay type: functional, organism-based
measurement-type: pEC50
The meaning of pEC50 here: minus log10 of the concentration in molar units.

Exercise: I would be grateful if you could share the reported pEC50 for `CC(C)c1cc2c(cc1O)[C@@]1(C)CCC[C@@](C)(CN3C(=O)c4ccccc4C3=O)[C@@H]1CC2` .
Key: 5.11

---

# Test system: BHK-21
# assay-remarks: Cytotoxicity against golden hamster BHK-21 cells measured after 6 days by MTT assay
# Type: toxicity, cell-based, Mesocricetus auratus
# test-settings: bhk-21, 144 h, time 6 day
measurement-type: CC100

Example entries begin here.
Exercise: I would be grateful if you could share the reported CC100 for `COC(=O)[C@]1(C)CCC[C@]2(C)c3cc(OC(C)=O)c(C(C)C)cc3C(=O)C[C@@H]12` .
Key: 25 µg/mL

Exercise: How about this compound: `CC(C)c1ccc2c(c1O)CC[C@H]1[C@](C)(C(=O)O)CCC[C@]21C`
Key: > 25 µg/mL

Exercise: How about this compound: CC(C)c1ccc2c(c1)CC[C@H]1C(C)(CO)CCC[C@]21C (stereo not given in full)
Key: > 50 µg/mL

Exercise: How about this compound: CC(C)c1cc2c(cc1O)[C@@]1(C)CCC[C@@](C)(CO)[C@@H]1CC2 [18-HYDROXYFERRUGINOL]
Key: 50 µg/mL

// moving on: another record for CC100
Exercise: I would be grateful if you could share the reported CC100 for CC(C)c1ccc2c(c1)CC[C@H]1C(C)(C(=O)O)CCC[C@]21C (stereo not given in full) .
Key: 50 µg/mL

---

# Tested on: Vero C1008
# assay-remarks: Cytotoxicity against African green monkey Vero E6 cells measured after 72 hrs by MTT assay
# Assay type: toxicity, cell-based
# test-settings: chlorocebus sabaeus, vero c1008, 72 h
measurement-type: CC100 (µg/mL)
State the answer as a number, implicitly in µg/mL.

Exercise: I would be grateful if you could share the reported CC100 for `COC(=O)[C@@]1(C)CCC[C@]2(C)c3cc(OC(C)=O)c(C(C)C)cc3CC[C@@H]12` .
Key: 25

// moving on: another record for CC100
Exercise: I would be grateful if you could share the reported CC100 for `COC(=O)[C@@]1(C)CCC[C@]2(C)c3cc(OC(C)=O)c(C(C)C)cc3C(=O)C[C@@H]12` .
Key: 50

---

# System: dengue virus type 2
# Assay type: functional, Vero E6
# test-settings: time 72 hrs
measurement-type: EC

Example entries begin here.
Exercise: I would be grateful if you could share the reported EC for CC(C)c1cc2c(cc1O)[C@@]1(C)CCC[C@@](C)(CO)[C@@H]1CC2 [18-HYDROXYFERRUGINOL] .
Key: 25 µg/mL

Exercise: How about this compound: `COC(=O)[C@@]1(C)CCC[C@]2(C)c3cc(O)c(C(C)C)cc3C(=O)C[C@@H]12`
Key: 12 µg/mL

Exercise: How about this compound: CC(C)c1cc2c(cc1O)[C@@]1(C)CCCC(C)(C)[C@@H]1CC2 [FERRUGINOL]
Key: 25 µg/mL

Exercise: How about this compound: `CC(C)c1cc2c(cc1O)[C@@]1(C)CCC[C@@](C)(CO)[C@@H]1CC2=O`
Key: 12.5 µg/mL

Exercise: How about this compound: `CC(C)c1cc2c(cc1O)[C@@]1(C)CCC[C@@](C)(CN3C(=O)c4ccccc4C3=O)[C@@H]1CC2`
Key: 25 µg/mL

More entries:
Exercise: I would be grateful if you could share the reported EC for `COC(=O)[C@@]1(C)CCC[C@]2(C)c3cc(O)c(C(C)C)cc3CC[C@@H]12` .
Key: 25 µg/mL

Exercise: How about this compound: CC(C)c1ccc2c(c1)CC[C@H]1C(C)(CO)CCC[C@]21C (some centres not stated)
Key: 25 µg/mL

Exercise: How about this compound: `COC(=O)[C@]1(C)CCC[C@]2(C)c3ccc(C(C)C)c(O)c3CC[C@@H]12`
Key: 25 µg/mL

Exercise: How about this compound: `COC(=O)[C@@]1(C)CCC[C@]2(C)c3cc(OC(C)=O)c(C(C)C)cc3CC[C@@H]12`
Key: 12.5 µg/mL

Exercise: How about this compound: `COC(=O)[C@@]1(C)CCC[C@]2(C)c3cc(C(C)=O)c(C(C)C)cc3CC[C@@H]12`
Key: 25 µg/mL

Exercise: How about this compound: CC(C)c1cc2c(cc1O)[C@@]1(C)CCC[C@](C)(C(=O)O)[C@@H]1CC2 [LAMBERTIC ACID]
Key: 25 µg/mL

Exercise: How about this compound: CC(C)c1ccc2c(c1)CC[C@H]1C(C)(C(=O)O)CCC[C@]21C (some centres not stated)
Key: 25 µg/mL

---

# Test system: Vero C1008
# assay-remarks: Cytotoxicity against African green monkey Vero E6 cells measured after 72 hrs by MTT assay
# Assay type: toxicity, cell-based
# test-settings: chlorocebus sabaeus, vero c1008, 72 h
measurement-type: CC100

Example entries begin here.
Exercise: I would be grateful if you could share the reported CC100 for `CC(C)c1cc2c(cc1O)[C@@]1(C)CCC[C@](C)(CO)[C@@H]1CC2` .
Key: 25 µg/mL

Exercise: How about this compound: `CC(C)c1ccc2c(c1O)CC[C@H]1[C@](C)(C(=O)O)CCC[C@]21C`
Key: > 25 µg/mL

Exercise: How about this compound: `CC(C)c1cc2c(cc1O)[C@@]1(C)CCC[C@](C)(C(=O)O)[C@@H]1CC2=O`
Key: 25 µg/mL

Exercise: How about this compound: `COC(=O)[C@]1(C)CCC[C@]2(C)c3cc(C(C)=O)c(C(C)C)cc3CC[C@@H]12`
Key: > 50 µg/mL

Exercise: How about this compound: `COC(=O)[C@]1(C)CCC[C@]2(C)c3cc(O)c(C(C)C)cc3C(=O)C[C@@H]12`
Key: 50 µg/mL

Exercise: How about this compound: `CC(C)c1cc2c(cc1O)[C@@]1(C)CCC[C@@](C)(CO)[C@@H]1CC2=O`
Key: 25 µg/mL

Exercise: How about this compound: `CC(C)c1cc2c(cc1O)[C@@]1(C)CCC[C@@](C)(CN3C(=O)c4ccccc4C3=O)[C@@H]1CC2`
Key: > 50 µg/mL

Exercise: How about this compound: CC(C)c1cc2c(cc1O)[C@@]1(C)CCC[C@](C)(C(=O)O)[C@@H]1CC2 [LAMBERTIC ACID]
Key: > 50 µg/mL

More entries:
Exercise: I would be grateful if you could share the reported CC100 for `COC(=O)[C@]1(C)CCC[C@]2(C)c3ccc(C(C)C)c(O)c3CC[C@@H]12` .
Key: > 25 µg/mL

---

# System: Vero C1008
# assay-remarks: Cytotoxicity against African green monkey Vero E6 cells measured after 72 hrs by MTT assay
# Assay type: toxicity, cell-based
# test-settings: chlorocebus sabaeus, vero c1008, 72 h
# CC100 values compiled below

Example entries begin here.
Exercise: I would be grateful if you could share the reported CC100 for CC(C)c1cc2c(cc1O)[C@@]1(C)CCC[C@@](C)(CO)[C@@H]1CC2 [18-HYDROXYFERRUGINOL] .
Key: 50 µg/mL

Exercise: How about this molecule: `COC(=O)[C@]1(C)CCC[C@]2(C)c3cc(OC(C)=O)c(C(C)C)cc3C(=O)C[C@@H]12`
Key: 25 µg/mL

Exercise: How about this molecule: `CC(C)c1cc2c(cc1O)[C@@]1(C)CCCC(C)(C)[C@@H]1CC2`
Key: > 50 µg/mL

// moving on: another record for CC100
Exercise: I would be grateful if you could share the reported CC100 for `COC(=O)[C@]1(C)CCC[C@]2(C)c3cc(OC(C)=O)c(C(C)C)cc3CC[C@@H]12` .
Key: 50 µg/mL

---

# CC100 values compiled below
# Test system: BHK-21
# assay-remarks: Cytotoxicity against golden hamster BHK-21 cells measured after 6 days by MTT assay
# Format: toxicity, cell-based, Mesocricetus auratus
# test-settings: bhk-21, 144 h, time 6 day
State the answer as a number, implicitly in µg/mL.

Example entries begin here.
Exercise: I would be grateful if you could share the reported CC100 for `CC(C)c1cc2c(cc1O)[C@@]1(C)CCC[C@](C)(CO)[C@@H]1CC2=O` .
Key: 25

Exercise: How about this compound: `CC(C)c1cc2c(cc1O)[C@@]1(C)CCC[C@@](C)(C(=O)O)[C@@H]1CC2=O`
Key: 50

Exercise: How about this compound: `CC(C)c1cc2c(cc1O)[C@@]1(C)CCC[C@@](C)(CO)[C@@H]1CC2=O`
Key: 12.5

Exercise: How about this compound: `COC(=O)[C@@]1(C)CCC[C@]2(C)c3cc(O)c(C(C)C)cc3CC[C@@H]12`
Key: 50

Exercise: How about this compound: `COC(=O)[C@@]1(C)CCC[C@]2(C)c3cc(O)c(C(C)C)cc3C(=O)C[C@@H]12`
Key: 12.5

Exercise: How about this compound: `CC(C)c1cc2c(cc1O)[C@@]1(C)CCC[C@](C)(C(=O)O)[C@@H]1CC2=O`
Key: 12.5

// moving on: another record for CC100
Exercise: I would be grateful if you could share the reported CC100 for `COC(=O)[C@]1(C)CCC[C@]2(C)c3cc(O)c(C(C)C)cc3CC[C@@H]12` .
Key: 25

The reported numbers originate from ChEMBL document CHEMBL5137096.
